- Target system: T1, EsCas13d, nuclease-dead (Eubacterium siraeum, UniProt B0MS50, R295A;H300A;R849A;H854A)
- T1 sequence: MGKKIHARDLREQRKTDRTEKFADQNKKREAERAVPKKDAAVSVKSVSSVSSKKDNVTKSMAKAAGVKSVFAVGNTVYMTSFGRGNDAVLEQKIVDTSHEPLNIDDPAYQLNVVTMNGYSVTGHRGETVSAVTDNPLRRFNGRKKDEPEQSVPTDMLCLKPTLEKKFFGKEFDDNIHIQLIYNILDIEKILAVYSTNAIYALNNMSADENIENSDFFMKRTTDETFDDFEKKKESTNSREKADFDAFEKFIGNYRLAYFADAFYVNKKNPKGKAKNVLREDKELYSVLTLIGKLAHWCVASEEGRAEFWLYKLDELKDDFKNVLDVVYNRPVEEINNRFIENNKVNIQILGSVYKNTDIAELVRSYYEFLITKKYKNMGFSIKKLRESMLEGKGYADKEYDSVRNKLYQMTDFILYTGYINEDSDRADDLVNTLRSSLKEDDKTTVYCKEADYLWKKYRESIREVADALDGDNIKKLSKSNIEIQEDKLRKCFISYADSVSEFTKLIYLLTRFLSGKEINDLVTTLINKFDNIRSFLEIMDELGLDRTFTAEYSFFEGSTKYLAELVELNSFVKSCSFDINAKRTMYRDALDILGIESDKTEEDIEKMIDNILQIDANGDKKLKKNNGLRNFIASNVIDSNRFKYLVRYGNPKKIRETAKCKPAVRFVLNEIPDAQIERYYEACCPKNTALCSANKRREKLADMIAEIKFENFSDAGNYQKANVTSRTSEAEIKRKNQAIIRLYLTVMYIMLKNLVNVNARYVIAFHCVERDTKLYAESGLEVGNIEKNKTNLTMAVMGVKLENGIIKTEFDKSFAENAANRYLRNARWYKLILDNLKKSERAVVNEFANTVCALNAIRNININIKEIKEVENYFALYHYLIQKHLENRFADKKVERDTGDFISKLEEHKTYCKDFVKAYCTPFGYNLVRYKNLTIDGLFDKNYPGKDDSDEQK
- Assay procedure: crRNA (strand 1, pre-loaded); Mg2+; 40 mM Tris-HCl pH 7.5, 150 mM NaCl, 6 mM MgCl2, 1 mM DTT, 0.1% Tween-20, 0.2 mg/ml BSA; 25 C; 10 min per concentration, then washed
- Run parameters: tags: His6-TwinStrep-SUMO cleaved; N-terminal SNAP kept (SNAP-Surface 488); label: 3' end held by stalled T7 RNA polymerase
Measured attribute: Kd (nM)
Just the number in nM, nothing appended.

[ask] What value of Kd has been reported for the following binder? target 2 MT 5'PFS GGA 3'PFS ACC (mixed) RNA 1: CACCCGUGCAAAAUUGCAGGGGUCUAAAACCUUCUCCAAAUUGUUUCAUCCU RNA 2: GGGAAUGGAUCCACAUCUACGAAUUCGGAAGGAUGAAACAAUUUGGAGAAGACCAGAUCGGAAGAGCACACGU
[reply] 14.1

[ask] Here is the next binder: target 1 C6A,C7G (mixed) RNA 1: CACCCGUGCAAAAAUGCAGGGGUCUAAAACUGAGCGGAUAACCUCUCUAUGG RNA 2: GGGAAUGGAUCCACAUCUACGAAUUCGUACCAUAGAGAGGUUAUGAGCUCACCGAGAUCGGAAGAGCACACGU
[reply] 6.86

[ask] How about this binder: target 1 insU 3' of 18,insU 3' of 14 (mixed) RNA 1: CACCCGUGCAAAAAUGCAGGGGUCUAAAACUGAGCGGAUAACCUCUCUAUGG RNA 2: GGGAAUGGAUCCACAUCUACGAAUUCGUACCAUAUGAGAUGGUUAUCCGCUCACCGAGAUCGGAAGAGCACACGU
[reply] 73

[ask] Next: target 1 U3G,C21U (mixed) RNA 1: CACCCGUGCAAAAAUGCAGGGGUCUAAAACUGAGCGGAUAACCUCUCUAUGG RNA 2: GGGAAUGGAUCCACAUCUACGAAUUCGUACUAUAGAGAGGUUAUCCGCGCACCGAGAUCGGAAGAGCACACGU
[reply] 11

[ask] Quick one: target 1 insU 3' of 12,insC 3' of 10 (mixed) RNA 1: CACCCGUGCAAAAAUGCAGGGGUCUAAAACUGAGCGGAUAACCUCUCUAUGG RNA 2: GGGAAUGGAUCCACAUCUACGAAUUCGUACCAUAGAGAGGUUUCAUCCGCUCACCGAGAUCGGAAGAGCACACGU
[reply] 45

[ask] Then what about the binder target 1 C6A,A16G (mixed) RNA 1: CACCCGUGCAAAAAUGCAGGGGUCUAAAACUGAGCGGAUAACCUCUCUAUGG RNA 2: GGGAAUGGAUCCACAUCUACGAAUUCGUACCAUAGGGAGGUUAUCAGCUCACCGAGAUCGGAAGAGCACACGU ?
[reply] 28.8

[ask] What about target 2 MT 5'PFS GGU 3'PFS UCU (mixed) RNA 1: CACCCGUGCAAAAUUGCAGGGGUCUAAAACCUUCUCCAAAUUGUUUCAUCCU RNA 2: GGGAAUGGAUCCACAUCUACGAAUUCGGUAGGAUGAAACAAUUUGGAGAAGUCUAGAUCGGAAGAGCACACGU ?
[reply] 38

[ask] target 1 MT 5'PFS CCG 3'PFS UAA (mixed) RNA 1: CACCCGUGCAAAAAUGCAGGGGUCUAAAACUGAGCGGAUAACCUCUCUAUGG RNA 2: GGGAAUGGAUCCACAUCUACGAAUUCCCGCCAUAGAGAGGUUAUCCGCUCAUAAAGAUCGGAAGAGCACACGU ?
[reply] 14.2

[ask] Follow-up item: target 2 MT 5'PFS GUA 3'PFS CUG (mixed) RNA 1: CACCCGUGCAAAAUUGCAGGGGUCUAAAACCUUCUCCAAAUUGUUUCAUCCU RNA 2: GGGAAUGGAUCCACAUCUACGAAUUCGUAAGGAUGAAACAAUUUGGAGAAGCUGAGAUCGGAAGAGCACACGU
[reply] 11.1

[ask] Moving on to the next binder: target 1 insG 3' of 8,insA 3' of 6 (mixed) RNA 1: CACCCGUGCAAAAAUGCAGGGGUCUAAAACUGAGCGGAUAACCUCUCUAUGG RNA 2: GGGAAUGGAUCCACAUCUACGAAUUCGUACCAUAGAGAGGUUAUGCCAGCUCACCGAGAUCGGAAGAGCACACGU
[reply] 13.1

[ask] Also target 1 insA 3' of 12,insG 3' of 3 (mixed) RNA 1: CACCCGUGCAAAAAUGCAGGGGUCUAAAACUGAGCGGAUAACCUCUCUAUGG RNA 2: GGGAAUGGAUCCACAUCUACGAAUUCGUACCAUAGAGAGGAUUAUCCGCUGCACCGAGAUCGGAAGAGCACACGU ?
[reply] 18.7

[ask] What do we get for target 1 A20C (mixed) RNA 1: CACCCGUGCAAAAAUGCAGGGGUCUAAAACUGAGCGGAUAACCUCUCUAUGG RNA 2: GGGAAUGGAUCCACAUCUACGAAUUCGUACCCUAGAGAGGUUAUCCGCUCACCGAGAUCGGAAGAGCACACGU ?
[reply] 34.2

[ask] Also target 3 G4C,C6G (mixed) RNA 1: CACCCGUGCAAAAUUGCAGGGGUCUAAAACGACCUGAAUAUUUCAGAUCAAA RNA 2: GGGAAUGGAUCCACAUCUACGAAUUCGUUUUUGAUCUGAAAUAUUGACGUCUGCAGAUCGGAAGAGCACACGU ?
[reply] 24.1

[ask] Next record, please: target 1 C6U,A18C (mixed) RNA 1: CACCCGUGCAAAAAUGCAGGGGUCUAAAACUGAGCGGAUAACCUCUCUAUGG RNA 2: GGGAAUGGAUCCACAUCUACGAAUUCGUACCAUCGAGAGGUUAUCUGCUCACCGAGAUCGGAAGAGCACACGU
[reply] 58

Measured values drawn from paper PMC10786891 for this set.
